- System: UACC-257 melanoma
- Test protocol: NCI-60 one-dose screen, 48 h (100 = growth as untreated, 0 = no growth, -100 = all killed)
- Conditions: 10 µM unless noted
About 83,000 compounds went through this panel and 20% of them were active in at least one assay; those are over-represented in the sample as a whole.
Measurement kind: growth (%)
The reply should contain only the number, in %.

Give the measured growth for CCOC(=O)c1c(C)nn(CC(O)c2ccccc2)c1NC(=O)Nc1cccc(F)c1 (stereo not drawn)
91

Give the measured growth for CCOC(=O)c1c2c(n3ccccc13)C(=O)c1ncccc1C2=O
-3.95

Give the measured growth for Cc1ccc(O)c(NC(=O)c2ccc(CNc3ccnc(C(F)(F)F)c3)cc2)c1
71.3

Give the measured growth for COc1cc2c(c(OC)c1OC)C(=O)CC(c1cccc(NC(=O)c3ccccc3Br)c1)O2 (stereo not drawn)
90.1

Give the measured growth for C[C@H]1[C@H](C)CC[C@]2(C(=O)O)CC[C@]3(C)C(=CC[C@@H]4[C@@]5(C)C[C@@H](Cc6cn([C@@H]7O[C@H](CO)[C@@H](O)[C@H](O)[C@H]7O)nn6)[C@H](O)C(C)(C)[C@@H]5CC[C@]43C)[C@H]12
90.2

Give the measured growth for C=CC(C)(O)CC/C=C(\CO)C(=O)OC1C(C)OC(O[C@](C)(C=C)CC/C=C(\CO)C(=O)O[C@H]2C[C@@]3(C(=O)OC4OC(CO)C(O)C(O)C4OC4OC(C)C(OC5OC(CO)C(O)C5O)C(OC5OC(CO)C(O)C(O)C5O)C4O)C(CC2(C)C)C2=CCC4[C@@]5(C)CC[C@H](OC6OC(COC7OC(C)C(O)C(O)C7OC7OCC(O)C(O)C7O)C(O)C(O)C6NC(C)=O)C(C)(C)C5CC[C@@]4(C)[C@]2(C)C[C@H]3O)C(O)C1O (stereo partly drawn)
-53.5

Give the measured growth for Nc1nc(C(=O)N/N=C/c2ccc(N3CCOCC3)cc2)nn1-c1ccc(S(N)(=O)=O)cc1
107

Give the measured growth for O=C(CCCCCCCCC(=O)N/N=C\c1cc(Cl)ccc1O)N/N=C\c1cc(Cl)ccc1O
23.6

Give the measured growth for CS(=O)(=O)Nc1cc(-c2ccc3ncnc(Nc4ccc5c(cnn5Cc5cccnc5)c4)c3c2)cnc1Cl
64.5

Give the measured growth for O=C(Nc1nc(C(=O)N2CCN(C(c3ccccc3)c3ccccc3)CC2)cs1)c1ccc(NC2CCCCC2)c([N+](=O)[O-])c1
89.4

Give the measured growth for O=C(CBr)CN1C(=O)c2ccccc2C1=O
101

Give the measured growth for CCCCN1C(=O)/C(=c2\sc3n(c2=O)NC2C(N=3)N(CC)C(=O)N2CC)c2ccccc21 (stereo not drawn)
31

Give the measured growth for Clc1nccc2c(-c3csc(-c4c[nH]c5ccccc45)n3)c[nH]c12
-29.2

Give the measured growth for O=C(N/N=C/c1ccc(O)cc1O)c1ccc(Nc2ccnc(C(F)(F)F)c2)cc1
44.6

Give the measured growth for CN1CCN(Cc2ccc(NC(=O)c3cncc(C#Cc4cncc5[nH]ncc45)c3)cc2C(F)(F)F)CC1
6.82

Give the measured growth for COc1ccc(Cc2nnc(Nc3nc4ccccc4s3)s2)cc1
99.9

Give the measured growth for CCN=C1C=CC(=C(c2ccc(N(C)C)cc2)c2ccc(N(C)C)cc2)c2ccccc21
-10.1

Give the measured growth for O=C1OCC2=C1C(c1cccc(C(F)(F)F)c1)c1cc3c(cc1N2CCO)OCO3 (stereo not drawn)
74.2

Give the measured growth for CCOC(=O)C1=C(C)N=C2SC=C(c3ccccc3)N2[C@H]1c1cn[nH]c1-c1ccc(Cl)cc1
52.6

Give the measured growth for CCn1cc(C2=C(c3cn(C)c4ncccc34)C(=O)NC2=O)c2cccnc21
102

Give the measured growth for COc1cc(-c2nc3ccc(C)cc3[nH]2)ccc1OCC(=O)N=Nc1c(O)[nH]c2ccc(Cl)cc12
39.4

Give the measured growth for Cc1cccc(N2CCN(C(=S)c3ccc4c(c3)OCO4)CC2)c1
32.5

Give the measured growth for CCN(CC)c1ccc(/C=C\c2cc(C)c3cc(C)ccc3n2)cc1
24.4

Give the measured growth for CCOC(=O)n1cc(-c2nonc2-c2cn(C)c3ccccc23)c2ccccc21
68.9

Give the measured growth for Cc1cc(C(=O)Nc2cc(Nc3ncccc3-c3ncnc4nc[nH]c34)ccc2F)cc(C(F)(F)F)c1
10.7

Give the measured growth for Cc1ccc(C)n1/C=C/n1c(C)ccc1C
119

Give the measured growth for N/C(=N\c1nc2ccccc2s1)NC(=NC1CCCCC1)NC1CCCCC1
-52.6

Give the measured growth for Cn1cc(C(=O)c2nc(-c3c[nH]c4ccc(Br)cc34)no2)c2cc(Br)ccc21
109
